- tested-system: ROCK2 (Homo sapiens, UniProt O75116)
- Sequence (O75116 whole entry): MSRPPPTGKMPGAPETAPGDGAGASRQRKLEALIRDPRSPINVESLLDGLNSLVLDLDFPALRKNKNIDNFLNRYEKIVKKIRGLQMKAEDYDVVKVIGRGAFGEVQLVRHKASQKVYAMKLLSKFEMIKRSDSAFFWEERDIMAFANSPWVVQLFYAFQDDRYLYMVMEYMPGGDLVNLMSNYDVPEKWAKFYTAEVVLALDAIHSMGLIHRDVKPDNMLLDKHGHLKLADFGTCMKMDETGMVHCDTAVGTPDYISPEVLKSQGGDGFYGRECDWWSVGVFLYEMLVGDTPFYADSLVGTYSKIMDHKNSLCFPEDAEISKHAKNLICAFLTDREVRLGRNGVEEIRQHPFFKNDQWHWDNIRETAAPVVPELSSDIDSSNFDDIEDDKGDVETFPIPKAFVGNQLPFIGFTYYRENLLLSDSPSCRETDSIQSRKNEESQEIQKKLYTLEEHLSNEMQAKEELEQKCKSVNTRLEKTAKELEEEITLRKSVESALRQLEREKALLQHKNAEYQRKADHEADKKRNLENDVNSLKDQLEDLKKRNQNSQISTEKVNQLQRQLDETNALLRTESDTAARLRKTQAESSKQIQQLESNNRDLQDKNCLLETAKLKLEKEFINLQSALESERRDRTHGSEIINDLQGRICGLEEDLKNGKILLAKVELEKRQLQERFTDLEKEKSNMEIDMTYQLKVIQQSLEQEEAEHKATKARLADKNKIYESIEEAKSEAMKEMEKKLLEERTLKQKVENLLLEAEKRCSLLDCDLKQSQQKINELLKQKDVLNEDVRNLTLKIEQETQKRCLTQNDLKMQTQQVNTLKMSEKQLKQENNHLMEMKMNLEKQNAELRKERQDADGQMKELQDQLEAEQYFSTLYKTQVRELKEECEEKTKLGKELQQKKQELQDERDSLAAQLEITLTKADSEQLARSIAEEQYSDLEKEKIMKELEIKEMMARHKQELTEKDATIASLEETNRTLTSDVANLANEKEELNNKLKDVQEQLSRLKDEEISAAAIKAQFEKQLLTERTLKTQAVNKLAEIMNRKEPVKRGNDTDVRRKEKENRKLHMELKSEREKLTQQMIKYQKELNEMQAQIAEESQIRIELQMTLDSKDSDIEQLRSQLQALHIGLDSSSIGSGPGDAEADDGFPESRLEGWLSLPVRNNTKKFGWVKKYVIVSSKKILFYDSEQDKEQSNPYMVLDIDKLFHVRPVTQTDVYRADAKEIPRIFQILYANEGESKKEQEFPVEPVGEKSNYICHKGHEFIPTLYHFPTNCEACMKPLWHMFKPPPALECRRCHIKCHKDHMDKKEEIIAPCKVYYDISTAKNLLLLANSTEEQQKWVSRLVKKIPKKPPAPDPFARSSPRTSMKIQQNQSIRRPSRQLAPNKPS
- assay-notes: competition fluorescence polarization
test-readout: Kd (nM)
Give bare numbers, in nM.

Request: What does the record list as Kd for ADRGLTTRPGSGLTNIKTEEISEVKMDAEFRHDSGYEVHHQKLVFFAEDV (BACE1 C-terminal peptide present) [APP 646-695] ?
Result: 3.5
